# target.system: Cocaine esterase (Homo sapiens)
# Sequence (O00748 whole entry): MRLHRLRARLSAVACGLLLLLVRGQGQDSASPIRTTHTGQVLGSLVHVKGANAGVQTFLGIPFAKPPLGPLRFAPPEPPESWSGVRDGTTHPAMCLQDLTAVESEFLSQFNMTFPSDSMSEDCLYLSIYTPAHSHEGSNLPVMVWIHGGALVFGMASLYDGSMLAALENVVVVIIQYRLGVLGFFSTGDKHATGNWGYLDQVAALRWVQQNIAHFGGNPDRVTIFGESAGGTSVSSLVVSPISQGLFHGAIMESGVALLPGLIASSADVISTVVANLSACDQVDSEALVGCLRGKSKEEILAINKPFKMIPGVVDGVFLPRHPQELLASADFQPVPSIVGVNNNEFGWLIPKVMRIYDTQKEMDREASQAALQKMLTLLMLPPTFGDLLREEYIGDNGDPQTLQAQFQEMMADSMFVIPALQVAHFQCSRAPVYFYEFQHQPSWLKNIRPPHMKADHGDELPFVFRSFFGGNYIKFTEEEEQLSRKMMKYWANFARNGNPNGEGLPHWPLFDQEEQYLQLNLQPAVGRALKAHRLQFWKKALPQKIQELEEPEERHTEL
measurement.type: pKi
Keep in mind that pKi stands for -log10 of concentration in molar terms.

Entry "O=C(C(=O)c1cc(Br)cs1)c1cc(Br)cs1" needs its pKi filled in; supply it.
7.24

Entry O=C(c1cccs1)C(O)c1cccs1 (stereo unspecified) needs its pKi filled in; supply it.
5.25

Entry "O=C(C(=O)c1cccs1)c1cccs1" needs its pKi filled in; supply it.
5.98

Entry "O=C(C(=O)c1ccco1)c1ccco1" needs its pKi filled in; supply it.
5.10

Entry "O=C(C(=O)c1ccsc1)c1ccsc1" needs its pKi filled in; supply it.
5.18
